# target.desc: SARS-CoV-2 N CTD+IDR (SARS-CoV-2, UniProt P0DTC9 250-419)
# test.details: BLI; BLI (Octet RED96e, SSA sensors, biotinylated RNA immobilised): PBS, 0.02% Tween 20, 25 C; pH not stated; 1:1 kinetic fit
# setup.conditions: protein: recombinant; tags: 6xHis-SUMO tag removed by Ulp1; chain copies: 2; label: 5' biotin
A collection of binders and their measured pKd
pKd is a log-scale quantity: -log10 of the concentration expressed in molar.

AAACGAAC (ssRNA) [TRS-2 (RNA2)] :: 5.04

With those in mind, consider the next binder.
The value of pKd measured for the binder AAACGAACUU (ssRNA) [TRS-3 (RNA3)] turned out to be 5.23
